# Assay comment: in vitro
# Condition notes: mouse, hepatocytes, Clint, MH
# Method: Assessment of metabolic stability was performed as described previously ([17]) using human (HLM) and mouse (MLM) liver microsomes (Phase I) and mouse hepatocytes (MH) (Thermo Fisher Scientific, Waltham, MA, USA). […] The elimination rate constant (k) was calculated as a slope module of log-linear regression of the substrate content vs. time. Then, intrinsic clearance (Cl int) was calculated as Cl int = k/d, where d is a protein or cell density for microsomal or hepatocyte stability. […]
Measurement kind: hepatocyte CLint

compound="CC(=O)CC(c1ccccc1)c1c(O)c2ccccc2oc1=O (stereo not shown) [warfarin, reference compound]" reported_result="1.7 µL/min/1e6 cells"

----------
# Assay comment: physchem
# Condition notes: pH 6.8
Measurement kind: logD at 24 h

compound="COc1cc(CCc2cc(-c3nc4ccc(N5CCN(C)CC5)cc4[nH]3)n[nH]2)cc(OC)c1 [CPL304110]" reported_result=3.49

----------
# Assay comment: Metabolic stability in liver microsomes (Phase I)
# Condition notes: human
Measurement kind: microsomal CLint (µL/min/mg)

molecule=COc1cc(CCc2cc(-c3nc4ccc(N5CCN(C)CC5)cc4[nH]3)n[nH]2)cc(OC)c1 reported_result=38.1
molecule="CC(=O)CC(c1ccccc1)c1c(O)c2ccccc2oc1=O (centres unmarked) [warfarin, reference compound]" reported_result=5.7

----------
# Assay comment: physchem
# Format: physicochemical
# Condition notes: 25 °C, pH 1.2, simulated gastric fluid, thermodynamic from solid
Measurement kind: solubility thermodynamic at 24 h (mg/mL)

compound="COc1cc(CCc2cc(-c3nc4ccc(N5CCN(C)CC5)cc4[nH]3)n[nH]2)cc(OC)c1 [CPL304110]" unit_info=mg/mL reported_result=39.3

----------
# Assay comment: Fraction unbound in plasma
# Assay type: in vitro ADME
# Condition notes: human plasma
Measurement kind: fraction unbound

smiles=COc1cc(CCc2cc(-c3nc4ccc(N5CCN(C)CC5)cc4[nH]3)n[nH]2)cc(OC)c1 reported_result=0.0043

----------
# Assay comment: physchem
# Format: physicochemical
# Condition notes: 25 °C, pH 7.4, aqueous buffer, thermodynamic from solid
Measurement kind: solubility thermodynamic at 24 h (mg/mL)

smiles=COc1cc(CCc2cc(-c3nc4ccc(N5CCN(C)CC5)cc4[nH]3)n[nH]2)cc(OC)c1 unit_info=mg/mL reported_result=0.01

----------
# Assay comment: in vitro
# Condition notes: mouse, microsomes
Measurement kind: microsomal CLint (µL/min/mg)

compound="CC(=O)CC(c1ccccc1)c1c(O)c2ccccc2oc1=O (stereo not shown) [warfarin, reference compound]" reported_result=3.2

----------
# Assay comment: physchem
# Condition notes: pH 7.4
Measurement kind: logD at 24 h

smiles=COc1cc(CCc2cc(-c3nc4ccc(N5CCN(C)CC5)cc4[nH]3)n[nH]2)cc(OC)c1 reported_result=4.22

----------
# Assay comment: Parallel artificial membrane permeability assay (PAMPA)
# Condition notes: pH 7.4
Measurement kind: Papp at 4 h, 10 µM (×10⁻⁶ cm/s)

smiles=COc1cc(CCc2cc(-c3nc4ccc(N5CCN(C)CC5)cc4[nH]3)n[nH]2)cc(OC)c1 unit_info="×10⁻⁶ cm/s" reported_result=0.81

----------
# Assay comment: Metabolic stability in liver microsomes (Phase I)
# Condition notes: mouse
Measurement kind: microsomal CLint (µL/min/mg)

compound="COc1cc(CCc2cc(-c3nc4ccc(N5CCN(C)CC5)cc4[nH]3)n[nH]2)cc(OC)c1 [CPL304110]" measurement_kind="microsomal CLint" reported_result=50.3
